measured_target: UniProt:Q96DB2
Sequence (Q96DB2 whole entry): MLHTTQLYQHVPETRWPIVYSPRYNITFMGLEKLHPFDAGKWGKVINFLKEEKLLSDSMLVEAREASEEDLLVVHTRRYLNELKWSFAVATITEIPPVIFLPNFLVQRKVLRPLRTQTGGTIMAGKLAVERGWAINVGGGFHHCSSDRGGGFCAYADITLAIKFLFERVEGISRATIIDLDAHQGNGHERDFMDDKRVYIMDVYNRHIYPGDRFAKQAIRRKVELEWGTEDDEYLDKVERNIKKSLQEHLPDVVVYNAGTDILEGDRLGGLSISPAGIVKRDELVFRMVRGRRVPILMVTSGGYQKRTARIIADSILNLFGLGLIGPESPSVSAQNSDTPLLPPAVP
experimental_protocol: HDAC11 deacetylase electrophoretic mobility shift assay (Nanosyn)
Type: biochemical
setup_conditions: comparison with parent or lead compound
Experimental: The measurement of HD AC 11 deacetylase activity was performed using an electrophoretic mobility shift assay by Nanosyn (Santa Clara, Calif.). […] The terminated assay plates were analyzed on LabChip® 3000 microfluidic electrophoresis instrument (Perkin Elmer/Caliper Life Sciences). The fluorescence intensity of the electrophoretically separated de-acetylated product and substrate peptide was measured. […]
measured_metric: HDAC11 potency, in words

> print(dat)
                        structure.notation            result
1      O=C(NO)c1cccc2c1CN(c1nc3ccccc3s1)C2  improved potency
2  Cl.O=C(NO)c1cccc2c1CN(c1ccc3ccccc3n1)C2  improved potency
